Let's go through some recorded AC50 values for D(1A) dopamine receptor (Homo sapiens, UniProt P21728) together.

Example molecules with recorded AC50:
>>> result("COc1ccnc(C[S+]([O-])c2nc3ccc(OC(F)F)cc3[nH]2)c1OC (stereo unspecified) [PANTOPRAZOLE]")
"> 10 µM"
>>> result("[H]/N=C(/N)N[C@H]1[C@H](O)[C@@H](O)[C@H](O[C@@H]2O[C@@H](C)[C@](O)(C=O)[C@H]2O[C@@H]2O[C@@H](CO)[C@H](O)[C@@H](O)[C@@H]2NC)[C@@H](N/C(N)=N\\[H])[C@@H]1O [STREPTOMYCIN]")
"> 10 µM"

Query: Dear colleague, please send me the reported AC50 for CC1(C)O[C@@H]2[C@@H](CO[C@@]3(COS(N)(=O)=O)OC(C)(C)O[C@@H]23)O1 [TOPIRAMATE] when you can.
Result: > 10 µM

Query: Identify measured AC50 corresponding to C[C@H]1C[C@H]2[C@@H]3CCC4=CC(=O)C=C[C@]4(C)[C@@]3(Cl)[C@@H](O)C[C@]2(C)[C@@]1(O)C(=O)CO [BECLOMETHASONE]
Result: > 10 µM

Query: Provide measured AC50 value, entry: C[C@]1(COc2ccc(N3CCC(Oc4ccc(OC(F)(F)F)cc4)CC3)cc2)Cn2cc([N+](=O)[O-])nc2O1
Result: > 10 µM

Query: Output AC50 of CC(C)CC(N(C)C)C1(c2ccc(Cl)cc2)CCC1 (stereo unspecified) [SIBUTRAMINE]
Result: > 10 µM

Query: Give AC50 for the following molecule: Cc1cnc(NC(=O)C2=C(O)c3ccccc3S(=O)(=O)N2C)s1 [MELOXICAM]
Result: > 10 µM
